B1: MATN2 (parent)
chain: VNVPGSFVCQCYSGYALAEDGKRC

Variants of: B1
Assay: protein stability index of a GFP-peptide fusion (GPS, HEK-293T) (PSI 1-6); higher = more stable;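 note: lentivirally expressed fusions sorted by FACS into six bins by GFP to DsRed ratio, PSI derived from sequencing read proportions per bin multiplied by bin number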
Details: c terminus: a fixed tail appended
measurement-kind: protein stability index
Answers are plain numbers.

Answered cases to consult:
1) R23S :: 2.35
2) Y15S :: 3.02
3) Y15F :: 2.38
4) P4S :: 1.34
5) Y15I :: 2.23
6) G21D :: 2.43

Could you report protein stability index for every entry in the following list?
1. K22M
2. G21V
3. V1R

1.23
1.88
1.37

Could you report protein stability index for every entry in the following list?
1. V1T
2. F7T
3. V1G
4. Q10L
5. V1Q

[2.36, 2.88, 2.6, 2.46, 2.01]
